B1: PTPLAD1 (parent)
chain: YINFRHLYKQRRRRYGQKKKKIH

# Variants of: B1
# Assay protocol: protein stability index of a GFP-peptide fusion (GPS, HEK-293T) (PSI 1-6); higher = more stable;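 further: lentivirally expressed fusions sorted by FACS into six bins by GFP to DsRed ratio, PSI derived from sequencing read proportions per bin multiplied by bin number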
# Particulars: c terminus: native
// FALSE strictly below 2 in protein stability index; TRUE otherwise

H6L    TRUE
I22W    TRUE
Y15D    TRUE
Y15K    TRUE

Inquiry: Threshold query (protein stability index >= 2) on Q10F
Reply text: TRUE

Inquiry: Threshold query (protein stability index >= 2) on Y1P
Reply text: FALSE

Inquiry: Threshold query (protein stability index >= 2) on R5N
Reply text: FALSE

Inquiry: Threshold query (protein stability index >= 2) on R5Q
Reply text: TRUE

Inquiry: Threshold query (protein stability index >= 2) on R11M
Reply text: FALSE

Inquiry: Threshold query (protein stability index >= 2) on R5M
Reply text: FALSE

Inquiry: Threshold query (protein stability index >= 2) on H23T
Reply text: TRUE
